tested on: NCI/ADR-RES ovarian; assay: NCI tumour cell line growth inhibition, 48 h
What GI50 was measured for each of the following?

Could you please provide reported GI50 for COc1cc2nc3sc(C(=O)Nc4ccc(C(=O)OC(C)C)cc4)c(C(=O)Nc4ccc(Cl)cc4C)n3c(=O)c2cc1OC ? Thanks!
12.4 µM

Read off the recorded GI50 for O=C1NN(c2ccc(C(=O)O)cc2)C(=O)/C1=C\c1ccc([N+](=O)[O-])o1
89.3 µM

Respond only with GI50 recorded for Cc1nn(-c2nc3ccccc3s2)c(C)c1Oc1ccccc1O
3.6 µM

Give reported GI50 value for O=C1CC(c2ccc(N3CCOCC3)cc2)(c2ccsc2)NC(=O)C1Sc1ccccc1Cl (centres undefined)
46.7 µM

Input COc1cc(-c2nc(Nc3nc4ccccc4[nH]3)nc(N)c2C#N)cc(OC)c1OC , output reported GI50.
> 100 µM

Please look at this compound and report its GI50: CC[C@@H](C(=O)[C@@H](C)[C@@H](O)[C@H](C)[C@@H]1O[C@@H]([C@@H](CC)C(=O)O)CC[C@@H]1C)C1O[C@]2(C=CC(=O)[C@]3(CC[C@@](C)([C@H]4CC[C@](O)(CC)[C@H](C)O4)O3)O2)[C@H](C)C[C@@H]1C (some centres undefined)
0.766 µM

Given COc1cc(C(=O)c2ccc3c(c2)OCO3)cc(OC)c1OC , respond with its GI50.
0.987 µM

Give the value of GI50 reported for the following: C1=Cc2ccccc2Nc2ccccc21
> 100 µM

Look up GI50 of O=[N+]([O-])c1ccc(Br)c([N+](=O)[O-])c1 and report it.
2.39 µM

----------
I'd be grateful if you could share measured GI50 for these entries.
test system: SF-268 CNS; test: NCI tumour cell line growth inhibition, 48 h

# return recorded GI50 for input CCOc1c(Br)cc(C2C(C(=O)OC)=CN(C)C=C2C(=O)OC)cc1OC
> 100 µM

Let me know recorded GI50 for CC(C)(C)NC(C1=CC(C)(C)c2ccccc2C1=O)c1ccccc1 (stereo not given) , thanks.
1.38 µM

Supply recorded GI50 for COC(=O)Nc1nc2ccc(Oc3ccc(NC(=O)Nc4cccc(C(=O)O)c4)cc3)cc2[nH]1 here.
11.3 µM

Identify measured GI50 corresponding to CC[C@@H](C(=O)[C@@H](C)[C@@H](O)[C@H](C)[C@@H]1O[C@@H]([C@@H](CC)C(=O)O)CC[C@@H]1C)C1O[C@]2(C=CC(=O)[C@]3(CC[C@@](C)([C@H]4CC[C@](O)(CC)[C@H](C)O4)O3)O2)[C@H](C)C[C@@H]1C (stereo not given in full)
2.12 µM

Please report the measured GI50 for Oc1ccccc1-c1nn(CNc2cccc(Cl)c2)c(=S)o1
59.4 µM

Please indicate GI50 recorded for CC(=O)N1N=C2/C(=C/c3ccccc3)CC(C)CC2C1c1ccccc1 (stereo not given)
14.8 µM

Entry COc1ccc2nc(-c3cc(-c4cc(OC)c(OC)c(OC)c4)n[nH]3)[nH]c2c1 needs its GI50 filled in; supply it.
2.74 µM

Quote GI50 reported for Oc1ccc(-c2nnc3sc(-c4ccc(F)c(Oc5ccccc5)c4)nn23)cc1 please.
18 µM

Check the records and state GI50 for c1ccc(Cn2cc3c(c2-c2ccccc2)CCc2cnoc2-3)cc1
8.05 µM

State its GI50 for this compound: Cn1ccnc1C(=O)/C=C/c1ccc(C(=O)Nc2ccc(Cl)cc2)cc1
1.37 µM
